Tested on: Plasmodium berghei
assay_method_text: Screen against P. berghei liver stage (PbLuc), transformed with Luciferase, at 2uM
Format: functional, HepG2
setup_conditions: tested at 2 uM
The whole screen tested about 68,000 compounds, of which about 2,700 (4%) showed an effect of 50% or more. What follows is part of a selection rich in strong results, with near analogues and random picks from the rest.
assay_endpoint: INHIBITION

[[record]]
compound = "Cc1nn(C)cc1Cn1c(=O)c(C)nc2ccccc21"
measured_result = "21.57%"

[[record]]
compound = "O=C(O)[C@H]1OCC(=O)N(Cc2cccc(F)c2)[C@@H]1c1ccc(Cl)cc1"
measured_result = "-4.48%"

[[record]]
compound = "Cn1c(C(F)(F)F)nn(CCNC(=O)Nc2ccccc2F)c1=O"
measured_result = "37.87%"

[[record]]
compound = "Cc1nn(Cc2ccc(C(=O)NCCCN3CCCC3=O)o2)c(C)c1Cl"
measured_result = "26.37%"

[[record]]
compound = "NC1CCC(Nc2nccc(CCC(F)(F)F)n2)CC1 (stereo not drawn)"
measured_result = "2.17%"

[[record]]
compound = "CC(=O)N1CCCN(C(C(=O)O)c2cccc(C)c2C)CC1 (stereo not drawn)"
measured_result = "-17.37%"

[[record]]
compound = "CNC(=O)[C@@H]1C[C@H](N)CN1S(=O)(=O)c1cc(Cl)c(Cl)s1"
measured_result = "18.19%"

[[record]]
compound = "Cn1cc(-c2ncc3c(c2C(=O)O)CCN(Cc2ccco2)C3)cn1"
measured_result = "2.26%"

[[record]]
compound = "COCCc1noc(CN2CC(C)(c3ccccc3)CCC2=O)n1 (stereo not drawn)"
measured_result = "-12.84%"

[[record]]
compound = "COCCNC(=O)c1cc(C2CC2)nc2onc(C3CCNC3)c12 (stereo not drawn)"
measured_result = "5.75%"

[[record]]
compound = "CN(CC(F)(F)F)C(=O)Cn1cc(NC(=O)C(C)(C)C)cn1"
measured_result = "-48.48%"

[[record]]
compound = "CSCCN(C)Cc1ccc(F)cc1C#N"
measured_result = "-63.41%"

[[record]]
compound = "O=C(c1ccc2[nH]ccc2c1)N1CC[C@@H]2CN(CC3CC3)CCO[C@@H]2C1"
measured_result = "12.83%"

[[record]]
compound = "CNc1nc(N2CCN(Cc3ccsc3)C(CCO)C2)nc2c1CCC2 (stereo not drawn)"
measured_result = "35.43%"

[[record]]
compound = "Cc1nn(C)cc1Cn1c(=O)cnc2ccccc21"
measured_result = "2.82%"

[[record]]
compound = "Cc1csc(CCNc2ccc(C#N)cn2)n1"
measured_result = "20.29%"

[[record]]
compound = "CN1C[C@H]2CC[C@@H](C1)N(Cc1ccccc1OCCN1CCOCC1)C2"
measured_result = "32.1%"

[[record]]
compound = "c1cn2c(n1)CN(C1CCOCC1)CC(CN1CCCC1)C2 (stereo not drawn)"
measured_result = "29.95%"


---

Tested on: Plasmodium berghei
assay_method_text: Screen against P. berghei liver stage (PbLuc), transformed with Luciferase, at 2uM
Assay type: functional, HepG2
setup_conditions: tested at 2 uM
Among all 68,000 compounds or so, about 2,700 (4%) showed an effect of 50% or more. What follows is part of a selection rich in strong results, with near analogues and random picks from the rest.
Please use satisfied whenever INHIBITION is not below 50%, and not satisfied whenever it is.

[[record]]
compound = "CCc1ncnc2c1CCN(S(=O)(=O)CC)CC2"
label = "not satisfied"

[[record]]
compound = "CS(=O)(=O)c1ccccc1N[C@@H]1c2ccccc2C[C@@H]1O"
label = "satisfied"

[[record]]
compound = "O=C(c1cccc(-n2cccn2)c1)N1CCOC(CCO)C1 (configuration not stated)"
label = "satisfied"

[[record]]
compound = "NCC1CN(C(=O)c2cccc(-n3cccn3)c2)CCO1 (configuration not stated)"
label = "not satisfied"

[[record]]
compound = "CCN(CC)[C@@H]1CN(C(=O)c2ccc(C#N)cc2)[C@@H]2CCCO[C@H]12"
label = "not satisfied"

[[record]]
compound = "Cc1ccc(N(C)CC(O)COCc2ccccc2F)c(C)c1 (configuration not stated)"
label = "not satisfied"

[[record]]
compound = "Cc1nc(NC(=O)c2ccc(-n3ncc(C#N)c3N)cc2)sc1C"
label = "satisfied"

